Values were extracted from patent US8324248B2.

This listing pairs molecules with measured pKi.
# Target Entity: recombinant human NK3 receptor (Homo sapiens, UniProt P29371)
# Sequence (P29371 1-465): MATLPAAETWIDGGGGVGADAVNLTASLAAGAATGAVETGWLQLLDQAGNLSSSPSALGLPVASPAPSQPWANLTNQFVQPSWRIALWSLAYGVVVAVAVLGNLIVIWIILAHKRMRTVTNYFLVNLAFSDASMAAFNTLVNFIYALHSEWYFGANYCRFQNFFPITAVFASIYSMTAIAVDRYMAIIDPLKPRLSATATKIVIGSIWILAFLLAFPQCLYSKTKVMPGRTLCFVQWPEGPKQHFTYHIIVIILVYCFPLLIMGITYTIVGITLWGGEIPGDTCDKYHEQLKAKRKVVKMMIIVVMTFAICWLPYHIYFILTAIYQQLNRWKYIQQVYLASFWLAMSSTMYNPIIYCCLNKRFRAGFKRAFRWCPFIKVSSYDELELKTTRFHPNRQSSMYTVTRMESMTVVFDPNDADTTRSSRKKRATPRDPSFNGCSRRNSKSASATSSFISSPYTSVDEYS
# Method Description: [3H]SR142801 competition binding assay, hNK3 receptor binding
# Applied Conditions: [3H]SR142801 displacement; membranes from HEK293 cells transiently expressing recombinant human NK3 receptor; Ki by Cheng-Prussoff from IC50
pKi: −log10 of the molar value.
Property Name: pKi

| Molecule | Target Entity | Property Name | Experimental Value |
| --- | --- | --- | --- |
| C[C@H](Oc1ccc(Cl)cn1)[C@H]1CCN(C(=O)C2CCN(C(=O)C3(C)CC3)CC2)C[C@@H]1c1ccc(Cl)cc1 (stereo in doubt) [Example 7] | recombinant human NK3 receptor (Homo sapiens, UniProt P29371) | pKi | 8.59 |
| C[C@H](Oc1ccc(Cl)cn1)[C@H]1CCN(C(=O)C2CCN(C(=O)C3(C)CC3)CC2)C[C@@H]1c1ccc(Cl)cc1 (racemic) [Example 5] | recombinant human NK3 receptor (Homo sapiens, UniProt P29371) | pKi | 8.39 |
| C[C@H](Oc1ccc(C#N)cn1)[C@H]1CCN(C(=O)C2CCN(C(=O)C3(C)CC3)CC2)C[C@@H]1c1ccc(F)c(F)c1 [Example 66] | recombinant human NK3 receptor (Homo sapiens, UniProt P29371) | pKi | 8.34 |
| Cc1cc(C(=O)N2CC[C@H]([C@H](C)Oc3ccc(C#N)cn3)[C@@H](c3ccc(Cl)cc3)C2)cnn1 [Example 24] | recombinant human NK3 receptor (Homo sapiens, UniProt P29371) | pKi | 8.06 |
| Cc1noc(-c2ccc(C(=O)N3CC[C@H]([C@H](C)Oc4ccc(C#N)cn4)[C@@H](c4ccc(Cl)cc4)C3)cc2)n1 [Example 25] | recombinant human NK3 receptor (Homo sapiens, UniProt P29371) | pKi | 8.82 |
| CC1(C(=O)N2CCC(C(=O)N3CC[C@H](COc4ccc(Cl)cn4)[C@@H](c4ccc(F)c(F)c4)C3)CC2)CC1 (racemic) [Example 32] | recombinant human NK3 receptor (Homo sapiens, UniProt P29371) | pKi | 8.24 |

---

# Target Entity: recombinant human NK3 receptor (Homo sapiens)
# Method Description: [3H]SR142801 competition binding assay, hNK3 receptor binding
# Applied Conditions: [3H]SR142801 displacement; membranes from HEK293 cells transiently expressing recombinant human NK3 receptor; Ki by Cheng-Prussoff from IC50
pKi: −log10 of the molar value.
This listing pairs compounds with measured pKi.

| Compound | pKi |
| --- | --- |
| C[C@H](Oc1ccc(F)cc1)[C@H]1CCN(C(=O)C2CCN(c3ccc(C#N)cn3)CC2)C[C@@H]1c1ccc(Cl)cc1 [Example 53] | 9.22 |
| C[C@H](Oc1ccc(Cl)cn1)[C@H]1CCN(C(=O)C2CCN(c3ccc(C#N)cn3)CC2)C[C@@H]1c1ccc(Cl)cc1 [Example 13] | 9.52 |
| Cc1cc(C(=O)N2CC[C@H]([C@H](C)Oc3ccc(Cl)cn3)[C@@H](c3ccc(Cl)cc3)C2)cnn1 [Example 10] | 8.44 |
| C[C@H](Oc1ccc(C#N)cn1)[C@H]1CCN(C(=O)C2CCN(C(=O)C3(C)CC3)CC2)C[C@@H]1c1ccc(Cl)cc1 [Example 23] | 8.96 |
| Cc1cc(C(=O)N2CC[C@H]([C@H](C)Oc3ccc(C(F)(F)F)cn3)[C@@H](c3ccc(Cl)cc3)C2)cnn1 [Example 17] | 8.25 |
| C[C@H](Oc1ccc(Cl)cn1)[C@H]1CCN(C(=O)C2CCN(C(=O)C3(C)CC3)CC2)C[C@@H]1c1ccc(F)c(F)c1 [Example 63] | 8.46 |

---

# Target Entity: recombinant human NK3 receptor (Homo sapiens, UniProt P29371)
# Method Description: [3H]SR142801 competition binding assay, hNK3 receptor binding
# Applied Conditions: [3H]SR142801 displacement; membranes from HEK293 cells transiently expressing recombinant human NK3 receptor; Ki by Cheng-Prussoff from IC50

| Molecule | Target Entity | Ki |
| --- | --- | --- |
| Cc1noc(-c2ccc(C(=O)N3CC[C@H]([C@H](C)Oc4ccc(Cl)cn4)[C@@H](c4ccc(Cl)cc4)C3)cc2)n1 [Example 11] | recombinant human NK3 receptor (Homo sapiens, UniProt P29371) | 1.8 nM |
| C[C@H](Oc1ncc(F)cn1)[C@H]1CCN(C(=O)C2CCN(c3ccc(C#N)cn3)CC2)C[C@@H]1c1ccc(Cl)cc1 [Example 61] | recombinant human NK3 receptor (Homo sapiens, UniProt P29371) | 1.5 nM |
| C[C@H](Oc1ccc(C(F)(F)F)cn1)[C@H]1CCN(C(=O)C2CCN(C(=O)C3(C)CC3)CC2)C[C@@H]1c1ccc(Cl)cc1 [Example 16] | recombinant human NK3 receptor (Homo sapiens, UniProt P29371) | 1.6 nM |
